test system: NCI-H460; test: Cytotoxicity against human NCI-H460 cells after 48 hrs by sulforhodamine B assay; assay type: functional; settings: NCI-H460, 48 h
Measured GI50, listed per entry for reference.

querySmiles	unitSpec	GI50
CC(C)C[C@H]1OC(=O)[C@H](Cc2ccc(O)cc2)NC(=O)[C@H](C)OC(=O)[C@@H](C(C)C)NC(=O)[C@@H](CC(C)C)OC(=O)[C@H](C(C)C)NC(=O)[C@H](C)OC(=O)[C@@H](C(C)C)NC(=O)[C@@H](CC(C)C)OC(=O)[C@H](C(C)C)NC(=O)[C@H](C)OC(=O)[C@@H](C(C)C)NC1=O	nM	3
CC(C)C[C@H]1OC(=O)[C@H](C(C)C)NC(=O)[C@H](C)OC(=O)[C@@H](C(C)C)NC(=O)[C@@H](CC(C)C)OC(=O)[C@H](C(C)C)NC(=O)[C@H](C)OC(=O)[C@@H](C(C)C)NC(=O)[C@@H](CC2CCCCC2)OC(=O)[C@H](Cc2ccc(O)cc2)NC(=O)[C@H](C)OC(=O)[C@@H](C(C)C)NC1=O	nM	3.2
CC(C)C[C@H]1OC(=O)[C@H](C(C)C)NC(=O)[C@H](C)OC(=O)[C@@H](C(C)C)NC(=O)[C@@H](CC2CCCCC2)OC(=O)[C@H]([C@@H](C)OC(=O)CCCN(C)C(=O)OCc2ccc(O[C@@H]3O[C@H](C(=O)O)[C@@H](O)[C@H](O)[C@H]3O)c([N+](=O)[O-])c2)NC(=O)[C@H](C)OC(=O)[C@@H](C(C)C)NC(=O)[C@@H](CC(C)C)OC(=O)[C@H](C(C)C)NC(=O)[C@H](C)OC(=O)[C@@H](C(C)C)NC1=O	nM	42
CC(C)C[C@H]1OC(=O)[C@H](C(C)C)NC(=O)[C@H](C)OC(=O)[C@@H](C(C)C)NC(=O)[C@@H](CC2CCCCC2)OC(=O)[C@H]([C@@H](C)O)NC(=O)[C@H](C)OC(=O)[C@@H](C(C)C)NC(=O)[C@@H](CC(C)C)OC(=O)[C@H](C(C)C)NC(=O)[C@H](C)OC(=O)[C@@H](C(C)C)NC1=O	nM	3.3
CC(C)C[C@H]1OC(=O)[C@H](C(C)C)NC(=O)[C@H](C)OC(=O)[C@@H](C(C)C)NC(=O)[C@@H](CC(C)C)OC(=O)[C@H]([C@@H](C)O)NC(=O)[C@H](C)OC(=O)[C@@H](C(C)C)NC(=O)[C@@H](CC(C)C)OC(=O)[C@H](C(C)C)NC(=O)[C@H](C)OC(=O)[C@@H](C(C)C)NC1=O	nM	2.8
CC(C)[C@@H]1NC(=O)[C@H](C)OC(=O)[C@@H](C(C)C)NC(=O)[C@@H](CC2CCCCC2)OC(=O)[C@H]([C@@H](C)OC(C)(C)C)NC(=O)[C@H](C)OC(=O)[C@@H](C(C)C)NC(=O)[C@@H](CC2CCCCC2)OC(=O)[C@H](C(C)C)NC(=O)[C@H](C)OC(=O)[C@@H](C(C)C)NC(=O)[C@@H](CC2CCCCC2)OC1=O	nM	240

Cited source for all entries: ChEMBL document CHEMBL3576825
